- Tested on: ERK1
- Construct: gene MAPK3
- assay_setup: concentration: 1 μM, replicates: in singlicate; n = 1;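 further: KINOMEscan kinase panel screen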
Give Y when the value for %Inh is at least 4%. Give N when it is less.

* CC(C)NCC(Cc1ccccc1)NC(=O)c1cc(Br)c(-c2ccnc3[nH]ccc23)s1.Cl.Cl (centres unmarked) | Y
* Fc1cc(Cl)ccc1Nc1ccnc2cc(-c3ccc(CN4CCSCC4)o3)ccc12 | Y
* c1ccc(Oc2ccc(Nc3ccnc4cc(-c5ccc(CN6CCCCC6)o5)ccc34)cc2)nc1 | Y
* CNc1nccc(-c2ccc3c(N)n[nH]c3c2)n1 | N
* Cc1ccc(O)cc1Nc1ccnc2cc(-c3ccc(CN4CCCCC4)o3)ccc12 | N

Task item: Reported %Inh reaches at least 4% for `CCNC(=O)/C=C/c1n[nH]c2cc(Sc3ccccc3C(=O)NC)ccc12` ?
Reply: Y

Task item: Param item: `CS(=O)(=O)c1cccc(CNc2nc(Nc3ccc4c(c3)CCC(=O)N4)ncc2C(F)(F)F)c1`
Reply: N

----------
Each entry below carries its reported %Inh.
- System: RIOK2
- assay_setup: concentration: 1 μM, replicates: in singlicate; n = 1
Answer format: value, then unit.

- CN(C)CCOc1ccc(-c2cc(-c3ccc(Cl)c(O)c3)c(-c3ccncc3)[nH]2)cc1.Cl.Cl: 32%
- COc1ccc(C2=C(Nc3cccc(O)c3)C(=O)NC2=O)cc1: 0%
- COc1cc(Nc2nccc(N3CCC(NS(=O)(=O)c4ccc(NC(C)=O)cc4)CC3)n2)cc(OC)c1OC: 66%

Task item: What measured %Inh goes with `O=C(Nc1n[nH]c2nc(-c3cccc(O)c3)ccc12)C1CC1` ?
Reply: 11%

----------
Below is a list of entries, each paired with its recorded %Inh value.
- System: CHEK2
- assay_setup: concentration: 1 μM, replicates: in singlicate; n = 1
Number in %, nothing else.

Below, 2 compounds whose answers are already recorded.
- COC(=O)Nc1nc2ccc(Oc3ccc(CC(=O)Nc4cc(C(F)(F)F)ccc4F)cc3)cc2[nH]1 [GW680903]: 20
- Cc1cccc(Nc2nc(NCCN)ncc2C(N)=O)c1 [GSK1292139]: 75

Task item: # lookup: %Inh of COc1cccc(-c2nc(-c3ccccc3)[nH]c2-c2ccncc2)c1 [SB-610250]
Reply: 0

Task item: Ok, now `CCNC(=O)/C=C/c1n[nH]c2cc(Sc3ccccc3C(=O)NC)ccc12`
Reply: 0

Task item: Request: Cl.N#CCc1ccc(Nc2nccc(Nc3ccc(Oc4ccccc4)cc3)n2)cc1 [GW639905]
Reply: 0

Task item: Item: COc1cccc2c(-c3ccncc3)c(-c3ccc(F)cc3)nn12 [GW468513]
Reply: 0

----------
Consider the following molecules and their measured %Inh readings.
- Tested on: PIK3CB
- assay_setup: concentration: 1 μM, replicates: in singlicate; n = 1
Give the quantity in %, number only.

Example results:
* Nc1cccc(-c2ccc3c(N)n[nH]c3c2)c1 | 40
* COc1cccc2c(-c3ccncc3)c(-c3ccc(F)cc3)nn12 | 0
* CC(=O)Nc1cn2nc(Oc3cccc(NC(=O)c4cccc(C(F)(F)F)c4)c3)ccc2n1 | 0
* Cc1cccc(Nc2nc(N[C@H]3CCCC[C@H]3N)ncc2C(N)=O)c1.Cl | 0

Let us examine a further case.
Task item: For the molecule `O=C(Nc1n[nH]c2cc(-c3cccs3)ccc12)C1CC1` , what %Inh is on record?
Reply: 35
